assay: isobaric coefficient of expansion; settings: 348.15 K; 5000 kPa; Liquid; DSC
Each item that follows carries a reported isobaric coefficient of expansion.

Recorded results for 5 molecules are shown here.
O=[N+]([O-])c1ccccc1	0.000852 1/K
CCC#N	0.0015 1/K
C[N+](=O)[O-]	0.00138 1/K
CC[N+](=O)[O-]	0.00126 1/K
CCC[N+](=O)[O-]	0.00122 1/K

Switching to the query record.
Quick one: isobaric coefficient of expansion of N#Cc1ccccc1 ?
0.00087 1/K

---

test: isobaric coefficient of expansion; conditions: 318.15 K; 15000 kPa; Liquid; DSC
Observed property: isobaric coefficient of expansion

A selection of reference data follows.
CCC[N+](=O)[O-]	0.00106 1/K
O=[N+]([O-])c1ccccc1	0.000802 1/K
CC[N+](=O)[O-]	0.00113 1/K

Quick one: isobaric coefficient of expansion of N#Cc1ccccc1 ?
0.000826 1/K

Another compound to check: CCC#N
0.00125 1/K

Also C[N+](=O)[O-] , if possible.
0.00119 1/K

---

test: isobaric coefficient of expansion; conditions: 278.15 K; 55000 kPa; Liquid; DSC
Item-by-item account of isobaric coefficient of expansion

Endpoint output: isobaric coefficient of expansion of CCC#N . Value?
0.000991 1/K

---

experiment: isobaric coefficient of expansion; details: 288.15 K; 25000 kPa; Liquid; DSC
Observed property: isobaric coefficient of expansion

See these solved cases before continuing.
O=[N+]([O-])c1ccccc1 [nitrobenzene]	0.000775 1/K
CCC[N+](=O)[O-] [1-nitropropane]	0.000972 1/K
N#Cc1ccccc1 [benzonitrile]	0.000799 1/K
C[N+](=O)[O-] [nitromethane]	0.0011 1/K
CCC#N [propanenitrile]	0.00112 1/K

Continue with the next compound.
Entry CC[N+](=O)[O-] [nitroethane] : reported isobaric coefficient of expansion = ?
0.00105 1/K

---

assay: isobaric coefficient of expansion; conditions: 338.15 K; 20000 kPa; Liquid; DSC
Observed property: isobaric coefficient of expansion

The examples below pair each entry with its known result.
N#Cc1ccccc1	0.000813 1/K
CCC[N+](=O)[O-]	0.00105 1/K
C[N+](=O)[O-]	0.0012 1/K

Tell me the measured isobaric coefficient of expansion of CCC#N , please.
0.00125 1/K

Repeat for the following compound: CC[N+](=O)[O-]
0.00111 1/K

Please do the same for O=[N+]([O-])c1ccccc1 as well.
0.00079 1/K

---

assay: isobaric coefficient of expansion; details: 348.15 K; 40000 kPa; Liquid; DSC
Form field: isobaric coefficient of expansion (one value per entry).

CCC#N [propanenitrile]	0.00108 1/K

Please give the measured isobaric coefficient of expansion for this compound: CCC[N+](=O)[O-] [1-nitropropane]
0.000932 1/K

# repeat for O=[N+]([O-])c1ccccc1 [nitrobenzene]
0.000734 1/K

Again, but for N#Cc1ccccc1 [benzonitrile]
0.000761 1/K

Subsequent entry: C[N+](=O)[O-] [nitromethane]
0.00108 1/K

Also CC[N+](=O)[O-] [nitroethane] , if possible.
0.00101 1/K

---

experiment: isobaric coefficient of expansion; conditions: 288.15 K; 10000 kPa; Liquid; DSC
Observed property: isobaric coefficient of expansion

Past entries and their recorded results:
CCC[N+](=O)[O-]	0.00104 1/K
C[N+](=O)[O-]	0.00116 1/K
CCC#N	0.00121 1/K

Looking for the measured isobaric coefficient of expansion of N#Cc1ccccc1 , can you help?
0.000832 1/K

Also CC[N+](=O)[O-] , if possible.
0.00111 1/K

Also O=[N+]([O-])c1ccccc1 ?
0.000813 1/K
